Assign solubility to each entry below.
- Measurement protocol: physchem
- Format: physicochemical
- Reported conditions: pH 6.5
Note: unit µg/mL is implicit; provide only the numeric part.

Query string: Which solubility reading was recorded for the molecule CCCCN1CC(=O)N(C)[C@@H](CC(C)C)C(=O)N[C@@H](Cc2ccc(C(=O)NS(C)(=O)=O)c(OC)c2)C(=O)N(C)[C@@H](CC(C)C)C(=O)N(C)[C@@H](CC(C)C)C(=O)NC(C(=O)N2CCCCC2)CC(=O)NC(CC(C)C)C(=O)N(C)[C@@H](Cc2ccccc2)C(=O)NC(C(C)C)C(=O)N(C)[C@@H](CC(C)C)C(=O)N[C@@H]([C@H](C)O)C1=O (single isomer, unassigned) [Compound 11] ?
Result string: 16.2

Query string: Which solubility reading was recorded for the molecule CC[C@H](C)[C@@H]1NC(=O)[C@H](CC(C)C)N(C)C(=O)CC(C(=O)N2CCOCC2)N(C)C(=O)[C@H](C2CCCC2)N(C)C(=O)C2(CCCC2)NC(=O)[C@@H]2CCCN2C(=O)[C@H](CCc2ccc(C(F)(F)F)c(Cl)c2)NC(=O)CN(C)C(=O)[C@H](Cc2ccc(C)cc2)N(CC)C(=O)[C@@H]2CCN2C(=O)[C@H](C)N(C)C1=O (single isomer, unassigned) [Compound 3] ?
Result string: 1.81

* * *

Assign With 5 mM lauroyl-L-carnitine Permeability coefficient (Caco-2 Papp) to each entry below.
- Test system: Caco-2 cells
- Measurement protocol: Evaluation of Caco-2 membrane permeability
- Format: in vitro ADME
- Reported conditions: 10 µM compound, 5 mM lauroyl-L-carnitine in FaSSIF/HBSS pH 6.5 apical; HBSS pH 7.4 4% BSA basal; 180 minutes
- Description: In the above measurements, a Pgp inhibitor, such as Zosquidar, can be added to the FaSSIF/HBSS buffer and the HBSS buffer, respectively. After step (step 1) and before step (step 2) of the above, pre-incubation can be performed by allowing each well to stand at 5% CO2, 37° C., 80 rpm for 20 to 24 hours. After pre-incubation, the solution at the Basal side can be removed and washed, and a new solution of the same composition can be added. A Pgp inhibitor can also be added to the new solution. […]
Bridge positions count the residues as written; N and C are the ends. Square brackets hold non-standard residues; d marks the D form. Peptide text beside a SMILES is read from it. * marks the point of attachment. ξ: configuration not given here. hPhe(3-Cl-4-CF3) = N[C@@H](CCc1ccc(C(F)(F)F)c(Cl)c1)C(=O)O; Phe(3-Cl) = N[C@@H](Cc1cccc(Cl)c1)C(=O)O; NMeCha = CN[C@@H](CC1CCCCC1)C(=O)O; NMeChg = CN[C@H](C(=O)O)C1CCCCC1; NMeF = CN[C@@H](Cc1ccccc1)C(=O)O; NMeD = CN[C@@H](CC(=O)O)C(=O)O; dNMeD = CN[C@H](CC(=O)O)C(=O)O; dNMeL = CN[C@H](CC(C)C)C(=O)O; ξIle = CC[C@H](C)C(N)C(=O)O; NMeS = CN[C@@H](CO)C(=O)O; Pip = O=C(O)[C@@H]1CCCCN1; Nle = CCCC[C@H](N)C(=O)O; Piperidide = C1CCN(*)CC1; Pyrrolidide = C1CCN(*)C1; dNMeA = CN[C@H](C)C(=O)O; Ac5c = NC1(C(=O)O)CCCC1; Sar = CNCC(=O)O; Propyl = CCC*
Note: unit ×10⁻⁶ cm/s is implicit; provide only the numeric part.

Query string: Which With 5 mM lauroyl-L-carnitine Permeability coefficient (Caco-2 Papp) reading was recorded for the compound CC[C@H](C)[C@@H]1NC(=O)[C@H](CC(C)C)N(C)C(=O)CC(C(=O)N2CCOCC2)N(C)C(=O)[C@H](C2CCCC2)N(C)C(=O)C2(CCCC2)NC(=O)[C@@H]2CCCN2C(=O)[C@H](CCc2ccc(C(F)(F)F)c(Cl)c2)NC(=O)CN(C)C(=O)[C@H](CC2CCCCC2)N(C)C(=O)[C@@H]2CCN2C(=O)[C@H](C)N(C)C1=O (single isomer, unassigned) ?
Result string: 0.265

Query string: Which With 5 mM lauroyl-L-carnitine Permeability coefficient (Caco-2 Papp) reading was recorded for the compound CCCC[C@@H]1NC(=O)[C@@H]2CCCN2C(=O)[C@H](CCCC)NC(=O)[C@@H](C)N(C)C(=O)C[C@@H](C(=O)N2CCCC2)N(C)C(=O)[C@@H]2CCCN2C(=O)[C@H]([C@@H](C)CC)NC(=O)[C@@H]2CCCCN2C(=O)[C@H](Cc2cccc(Cl)c2)NC(=O)[C@H](COCCC)N(C)C(=O)[C@H](Cc2ccccc2)N(C)C1=O [Compound 5] ([dNMeA][Nle]P[Nle][NMeF][NMeS](Propyl)[Phe(3-Cl)][Pip]IP[NMeD]-Pyrrolidide; lactam N-11) ?
Result string: 0.0264

Query string: Which With 5 mM lauroyl-L-carnitine Permeability coefficient (Caco-2 Papp) reading was recorded for the compound CC[C@H](C)[C@@H]1NC(=O)[C@H](CC(C)C)N(C)C(=O)CC(C(=O)N2CCCCC2)N(C)C(=O)[C@H](C2CCCC2)N(C)C(=O)C2(CCCC2)NC(=O)[C@@H]2CCCN2C(=O)[C@H](CCc2ccc(C(F)(F)F)c(Cl)c2)NC(=O)CN(C)C(=O)[C@H](CC2CCCCC2)N(C)C(=O)[C@@H]2CCN2C(=O)[C@H](C)N(C)C1=O (single isomer, unassigned) ?
Result string: 0.154

Query string: Which With 5 mM lauroyl-L-carnitine Permeability coefficient (Caco-2 Papp) reading was recorded for the compound CC[C@@H](C)[C@H]1NC(=O)[C@@H](Cc2ccccc2)N(C)C(=O)CN(C)C(=O)C[C@@H](C(=O)N2CCCCC2)NC(=O)[C@@H](CC(C)C)N(C)C(=O)[C@@H](COC(C)(C)C)NC(=O)[C@@H](CC(C)C)N(C)C(=O)[C@@H](CCc2ccccc2)N(C)C(=O)CN(C)C(=O)[C@@H]([C@H](C)O)NC(=O)[C@@H](CC(C)C)N(C)C1=O (stereo in doubt) ?
Result string: 0.526

Query string: Which With 5 mM lauroyl-L-carnitine Permeability coefficient (Caco-2 Papp) reading was recorded for the compound CC[C@H](C)[C@@H]1NC(=O)C(CC(C)C)N(C)C(=O)CC(C(=O)N(C)C)N(C)C(=O)[C@H](C2CCCC2)N(C)C(=O)C(C)NC(=O)C(C)N(C)C(=O)[C@H](CCc2ccc(C(F)(F)F)c(Cl)c2)NC(=O)CN(C)C(=O)[C@H](CC2CCCCC2)N(C)C(=O)[C@@H]2CCN2C(=O)[C@H](C)N(C)C1=O (single isomer, unassigned) ?
Result string: 0.0214

Query string: Which With 5 mM lauroyl-L-carnitine Permeability coefficient (Caco-2 Papp) reading was recorded for the compound CC[C@H](C)C1NC(=O)[C@@H](CC(C)C)N(C)C(=O)C[C@H](C(=O)N2CCCCC2)N(C)C(=O)[C@H](C2CCCCC2)N(C)C(=O)C2(CCCC2)NC(=O)[C@@H]2CCCN2C(=O)[C@H](CCc2ccc(C(F)(F)F)c(Cl)c2)NC(=O)CN(C)C(=O)[C@H](CC2CCCCC2)N(C)C(=O)CN(C)C(=O)CN(C)C1=O (stereo partly drawn) [Compound 1] ([dNMeL][ξIle][Sar][Sar][NMeCha][Sar][hPhe(3-Cl-4-CF3)]P[Ac5c][NMeChg][dNMeD]-Piperidide; lactam N-11) ?
Result string: 0.253

The reported measurements were obtained from patent US20250186542A1.
